Numbers sourced from PubChem BioAssay AID743279.

- protocol_summary: qHTS for Inhibitors of Inflammasome Signaling: IL-1-beta AlphaLISA Primary Screen; also: % is scaled to controls: 0 for no effect and ±100 for the full control effect
- condition_parameters: THP-1 LPS/ATP IL-1B secretion, 16 h; at 57.5 µM, stronger effect = lower value
Screen size: about 360,000 compounds; about 17,000 (4.7%) were called active. About 5% were inconclusive and are not listed. This excerpt belongs to a sample that is enriched for actives.
recorded_endpoint: activity change (%)
Give just the number in %; leave the unit off.

The following compounds have reported results that may help.
compound="CC(OC(=O)c1ccc2ccccc2n1)C(=O)c1ccccc1 (stereo not given)" recorded_endpoint="activity change" measurement_units=% number=14.9
compound="O=C(NC1CCCC1)C1c2ccccc2OCC(=O)N1Cc1ccccc1 (stereo not given)" recorded_endpoint="activity change" measurement_units=% number=27.8
compound=FC(F)(F)c1ccccc1Cc1c(-c2ccccc2)nc2c3ccccc3ccn12 recorded_endpoint="activity change" measurement_units=% number=14.3
compound=O=C(COc1ccc(Br)cc1)OCC(=O)c1ccc[nH]1 recorded_endpoint="activity change" measurement_units=% number=-7.68

Input CCOc1ccccc1/C=N/Nc1nc2ccccc2o1 , output reported activity change.
0

====

- protocol_summary: qHTS for Inhibitors of Inflammasome Signaling: IL-1-beta AlphaLISA Primary Screen
- condition_parameters: THP-1 LPS/ATP IL-1B secretion, 16 h; at 57.5 µM, stronger effect = lower value
The campaign covered roughly 360,000 compounds. About 17,000 (4.7%) were called active. Roughly 5% stayed inconclusive and do not appear here. This excerpt belongs to a sample that is enriched for actives.
recorded_endpoint: activity change (%)
Give just the number in %; leave the unit off.

The following compounds have reported results that may help.
molecule_smiles=NNc1cccc(C=Cc2ccccc2)cc1=O number=-13.4
molecule_smiles=O=C(NCc1ccco1)c1ccc([N+](=O)[O-])cc1Cl number=15.3
molecule_smiles=O=c1[nH]c(CCl)nc2cc(-c3ccc(Cl)cc3)sc12 number=-93.8

Query compound follows.
Input CCc1nc2c(OCCOc3ccccc3)cccn2c1N(C)C(=O)c1cccs1 , output reported activity change.
-18.6

====

Reported activity change values for a set of compounds
- protocol_summary: qHTS for Inhibitors of Inflammasome Signaling: IL-1-beta AlphaLISA Primary Screen
- condition_parameters: THP-1 LPS/ATP IL-1B secretion, 16 h; at 57.5 µM, stronger effect = lower value
Screen size: about 360,000 compounds; about 17,000 (4.7%) were called active. Another 5% or so got no clear call; they are omitted. This is one part of a sample in which actives are shown more often than they occur.
Give just the number in %; leave the unit off.

The following compounds have reported results that may help.
molecule_smiles=OCC1(CCOc2ccccc2)CCN(Cc2cn[nH]c2-c2ccccc2)CC1 measurement_units=% number=-2.13
molecule_smiles=CCN(CC)CCN(C(=O)c1cc(Cl)sc1Cl)c1nc2cc3c(cc2s1)OCO3 measurement_units=% number=0
molecule_smiles=C(=N\Nc1ccc2ccccc2n1)/c1ccc2c(c1)OCO2 measurement_units=% number=-9.79
molecule_smiles=CN1OC[C@@H]2CN(C(=O)c3cccnc3)[C@H](c3ccc(N4CCCCC4)cc3)C[C@@H]21 measurement_units=% number=3.15
molecule_smiles=CN(Cc1nc2ccccc2c(=O)[nH]1)Cc1cc(=O)oc2ccc3ccccc3c12 measurement_units=% number=0.506

Input CCN(CC)CCN(C(=O)c1cccc([N+](=O)[O-])c1)c1nc2ccc(OC)cc2s1 , output reported activity change.
-20.4

====

- protocol_summary: qHTS for Inhibitors of Inflammasome Signaling: IL-1-beta AlphaLISA Primary Screen
- condition_parameters: THP-1 LPS/ATP IL-1B secretion, 16 h; at 57.5 µM, stronger effect = lower value
- Excerpt: Inflammasomes are a set of intracellular multi-protein complexes that enable autocatalytic activation of inflammatory caspases and drive the innate immune response to counter harmful agents. […] A qHTS assay, based on AlphaLISA technology, was developed to screen the Molecular Libraries Small Molecule Repository (MLSMR) to look for novel inflammasome inhibitors. The assay detects IL-1B using AlphaLISA anti-IL-1B acceptor and donor beads. […]
The whole screen tested about 360,000 compounds, of which about 17,000 (4.7%) were called active. About 5% were inconclusive and are not listed. Many of the other results were omitted from the sample, so actives are more common in it than they were.
recorded_endpoint: activity change

The following molecules have reported results that may help.
molecule_smiles=CNC(=O)N1c2ccccc2C=Cc2ccccc21 recorded_endpoint="activity change" result="0% (inactive)"
molecule_smiles=NS(=O)(=O)c1ccc(CCNC(=S)Nc2ccc(S(N)(=O)=O)cc2)cc1 recorded_endpoint="activity change" result="-3.65% (inactive)"

Query molecule follows.
Input O=C(COc1ccc(F)cc1)N(CC1=CCS(=O)(=O)C1)c1ccccc1 , output reported activity change.
0.865% (inactive)

====

- protocol_summary: qHTS for Inhibitors of Inflammasome Signaling: IL-1-beta AlphaLISA Primary Screen
- condition_parameters: THP-1 LPS/ATP IL-1B secretion, 16 h; at 57.5 µM, stronger effect = lower value
The whole screen tested about 360,000 compounds, of which about 17,000 (4.7%) were called active. Roughly 5% stayed inconclusive and do not appear here. The full list was thinned out, with actives kept by preference.
Reported activity change values for a set of molecules
Give just the number in %; leave the unit off.

Input COc1cccc(-c2cc3nc(NCc4ccccc4OC)n(C)c(=O)c3s2)c1 , output reported activity change.
0.83

====

- protocol_summary: qHTS for Inhibitors of Inflammasome Signaling: IL-1-beta AlphaLISA Primary Screen
- condition_parameters: THP-1 LPS/ATP IL-1B secretion, 16 h; at 57.5 µM
The whole screen tested about 360,000 compounds, of which about 17,000 (4.7%) were called active. Not shown: some 5% with an inconclusive outcome. Cut-off read from the data, not from the text of the source: active = activity change below about -50%; inconclusive = mostly about -30% to -49%; inactive = weaker than that. The entries come from a sample that favours actives as a whole.
Outcome (select one): active, inactive

A selection of reference data follows.
compound="CCCC1C(c2ccccc2)C(C#N)(C#N)C2(C#N)CC1(N)NC2=O (configuration not stated)" cat=inactive
compound=Cc1nnc(NC(=O)c2ccc3nccnc3c2)s1 cat=inactive
compound="COc1ccc(C(C[N+](=O)[O-])n2nc(C)cc2C)cc1 (configuration not stated)" cat=active
compound=CCOc1ccc(C(=O)Nc2cccc(-c3ccc4nncn4n3)c2)cc1 cat=inactive
compound=COc1ccc(OC)c(-c2csc(NC(=O)COC(=O)C3CC3)n2)c1 cat=inactive

Dear colleague, could you share the recorded outcome for COc1cccc(CNc2nc3cc(-c4csc5ccccc45)sc3c(=O)n2C)c1 when you have a moment?
inactive

Dear colleague, could you share the recorded outcome for c1ccc(-c2ccccc2OCCN2CCCCC2)cc1 when you have a moment?
inactive

Dear colleague, could you share the recorded outcome for CCc1ccc(NC(=O)Nc2ccncc2)cc1 when you have a moment?
active

Dear colleague, could you share the recorded outcome for Fc1ccc(Cn2nnnc2C(c2cccs2)N2CCCCCC2)cc1 (configuration not stated) when you have a moment?
inactive

Dear colleague, could you share the recorded outcome for Cn1c(CCNS(=O)(=O)c2ccc(F)cc2)nnc1SCc1cccnc1 when you have a moment?
inactive

Dear colleague, could you share the recorded outcome for c1ccc(Cc2ccc(OCCn3ccnc3)cc2)cc1 when you have a moment?
active

====

Reported activity change values for a set of molecules
- protocol_summary: qHTS for Inhibitors of Inflammasome Signaling: IL-1-beta AlphaLISA Primary Screen
- condition_parameters: THP-1 LPS/ATP IL-1B secretion, 16 h; at 57.5 µM, stronger effect = lower value
Out of some 360,000 compounds screened, about 17,000 (4.7%) were called active. Roughly 5% stayed inconclusive and do not appear here. This is one part of a sample in which actives are shown more often than they occur.
Give just the number in %; leave the unit off.

The following molecules have reported results that may help.
molecule=O=C(NC1CCCCC1)c1ccc(CNc2c(N3CCOCC3)c(=O)c2=O)cc1 recorded_endpoint="activity change" measurement_units=% number=-13.2
molecule="CC(=O)Nc1ccc(NC(=O)C(C)OC(=O)c2ccccc2C(=O)c2ccc(Cl)c([N+](=O)[O-])c2)cc1 (stereo not drawn)" recorded_endpoint="activity change" measurement_units=% number=-108
molecule=Cc1ccc(-c2nn(-c3ccccc3)cc2C(=O)Nc2cccc(S(=O)(=O)N3CCOCC3)c2)cc1 recorded_endpoint="activity change" measurement_units=% number=-2.09
molecule=N#Cc1cccc(NC(=O)COC(=O)c2ccccc2C(=O)c2ccc(Cl)c([N+](=O)[O-])c2)c1 recorded_endpoint="activity change" measurement_units=% number=-112
molecule=COc1ccc(CC(=O)NCc2nnc(SCC(=O)Nc3ncc(C)s3)n2C)cc1 recorded_endpoint="activity change" measurement_units=% number=15.7

Input CCCC(=O)N1CCC1(C)C(=O)Nc1ccc(-n2cncn2)cc1 (stereo not drawn) , output reported activity change.
0.196

Input CCOC(=O)C1=C(C)c2ccccc2OC1(C)C(=O)OCC (stereo not drawn) , output reported activity change.
41.5

Input COC(=O)[C@@]12C[C@@H](CC(=O)N3CCC(c4ccccc4)CC3)C(=O)N(Cc3ccccc3)C1=CCC(C)(C)C2 , output reported activity change.
-70.2

====

- protocol_summary: qHTS for Inhibitors of Inflammasome Signaling: IL-1-beta AlphaLISA Primary Screen
- condition_parameters: THP-1 LPS/ATP IL-1B secretion, 16 h; at 57.5 µM, stronger effect = lower value
Hit rate of the full screen: of about 360,000 compounds, about 17,000 (4.7%) were called active. Another 5% or so got no clear call; they are omitted. The list comes from a sample in which actives are over-represented; it also holds close analogues and randomly drawn compounds.
recorded_endpoint: activity change (%)
Give just the number in %; leave the unit off.

molecule=CCN(CC)CCCN=C(N)N number=-17.5
molecule="COc1ccc(N/C=C(\\C2OC(=O)c3ccccc32)[N+](=O)[O-])cc1 (stereo unspecified)" number=-0.0924
molecule=NC(=O)C1(Nc2ccc([N+](=O)[O-])cc2)CCCC1 number=-4.02
molecule=Cc1cccc(NC(=O)Nc2ccc3c(c2)OCO3)n1 number=-14.3
molecule=COc1cc(OC)cc(-c2nnc(N(C)C(=O)c3ccncc3)s2)c1 number=-18.8

Query molecule follows.
Input Cc1cccc(S(=O)(=O)N(C)C[C@H]2OCc3cnnn3CCCC(=O)N([C@@H](C)CO)C[C@H]2C)c1 , output reported activity change.
16.6
